Recorded values, source patent WO2025083273A1.

Measured pKd values are reported for all entries that follow.
Target: T1, DR3-8i (human)
T1 construct: also called purified monomeric DR3-8i antigen protein
T1 chain: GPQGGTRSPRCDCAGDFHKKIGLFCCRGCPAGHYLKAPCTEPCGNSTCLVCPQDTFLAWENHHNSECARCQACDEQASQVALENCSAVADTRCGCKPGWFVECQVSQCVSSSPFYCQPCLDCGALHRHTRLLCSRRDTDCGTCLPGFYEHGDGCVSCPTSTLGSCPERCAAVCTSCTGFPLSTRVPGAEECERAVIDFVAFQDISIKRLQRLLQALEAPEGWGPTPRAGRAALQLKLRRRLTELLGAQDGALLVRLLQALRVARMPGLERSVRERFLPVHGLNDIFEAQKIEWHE
Assay: BLI, IgG captured on protein A, DR3-8i in solution; Average
API: returns pKd as number; meaning -log10 of concentration in mol/L.

{"columns": ["Binder", "pKd"],
 "data": [
  ["VHg10/VLg11 (antibody, human IgG1, V domains shown, human IgG1) VH: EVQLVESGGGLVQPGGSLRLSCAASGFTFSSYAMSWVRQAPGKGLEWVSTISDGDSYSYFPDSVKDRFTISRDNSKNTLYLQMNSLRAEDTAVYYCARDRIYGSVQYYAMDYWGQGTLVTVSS VL: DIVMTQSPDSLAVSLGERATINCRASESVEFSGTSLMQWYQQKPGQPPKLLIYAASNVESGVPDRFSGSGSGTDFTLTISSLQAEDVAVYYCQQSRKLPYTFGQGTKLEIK", 9.69]
]}

Task item: Given VHg10/VLg4 (antibody, human IgG1, V domains shown, human IgG1) VH: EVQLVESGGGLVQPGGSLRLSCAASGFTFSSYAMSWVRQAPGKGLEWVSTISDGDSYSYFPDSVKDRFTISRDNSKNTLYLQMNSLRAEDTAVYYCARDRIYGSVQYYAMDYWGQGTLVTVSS VL: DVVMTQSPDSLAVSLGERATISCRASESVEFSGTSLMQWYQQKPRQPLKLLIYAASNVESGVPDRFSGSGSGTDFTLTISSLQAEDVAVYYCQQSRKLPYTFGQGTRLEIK , state its recorded pKd.
Reply: 9.69

Task item: Field entry: VHg3/VLg11 (antibody, human IgG1, V domains shown, human IgG1) VH: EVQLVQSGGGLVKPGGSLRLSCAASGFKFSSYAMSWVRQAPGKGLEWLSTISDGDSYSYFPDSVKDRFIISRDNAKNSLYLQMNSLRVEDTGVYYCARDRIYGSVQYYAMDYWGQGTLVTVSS VL: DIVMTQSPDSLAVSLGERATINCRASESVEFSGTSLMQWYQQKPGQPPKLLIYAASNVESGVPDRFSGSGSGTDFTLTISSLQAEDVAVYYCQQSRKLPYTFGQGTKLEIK
Reply: 9.31

Task item: Try the binder VHg2/VLg2 (antibody, human IgG1, V domains shown, human IgG1) VH: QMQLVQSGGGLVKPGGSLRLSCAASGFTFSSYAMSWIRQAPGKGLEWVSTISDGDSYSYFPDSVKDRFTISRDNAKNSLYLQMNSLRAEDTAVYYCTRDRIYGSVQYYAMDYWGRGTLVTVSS VL: DIQLTQSPSSLSASVGDRVTITCRASESVEFSGTSLMQWYQQKAGLAPKLLIYAASNVESGVPSRFSGSGSGTDFTLTISSLQPEDFGTYYCQQSRKLPYTFGQGTRLEIK
Reply: 9.97

Task item: Same for VHg3/VLg12 (antibody, human IgG1, V domains shown, human IgG1) VH: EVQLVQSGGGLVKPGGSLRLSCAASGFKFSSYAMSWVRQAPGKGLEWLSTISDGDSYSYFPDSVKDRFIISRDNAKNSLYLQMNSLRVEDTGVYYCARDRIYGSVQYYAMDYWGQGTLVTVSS VL: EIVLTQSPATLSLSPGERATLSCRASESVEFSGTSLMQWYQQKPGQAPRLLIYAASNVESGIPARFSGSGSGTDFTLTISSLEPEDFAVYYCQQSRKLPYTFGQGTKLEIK
Reply: 9.40

Task item: Likewise for VHg6/VLg11 (antibody, human IgG1, V domains shown, human IgG1) VH: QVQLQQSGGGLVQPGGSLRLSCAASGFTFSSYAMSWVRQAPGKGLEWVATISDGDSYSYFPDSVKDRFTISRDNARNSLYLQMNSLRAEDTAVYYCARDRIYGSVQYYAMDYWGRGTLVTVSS VL: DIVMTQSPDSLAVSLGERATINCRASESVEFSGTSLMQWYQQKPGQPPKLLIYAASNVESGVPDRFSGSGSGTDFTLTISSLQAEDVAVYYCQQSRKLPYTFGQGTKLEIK ?
Reply: 9.84
